# Tested on: MCF7
# Assay explanation: NCI 60 cell line panel screen (SRB)
# Format: cell-based, human
# Study conditions: MCF7 (Breast Cancer); LC50: PG=−50
Recorded metric: Log10LC50

Query CC1CCC2C(C)C(CC(O)(CC3OC4OC5(C)CCC6C(C)CCC(C3C)C46OO5)CS(=O)(=O)c3ccc(C(=O)O)cc3)OC3OC4(C)CCC1C32OO4 (stereo not drawn) [Compound 10c] yields Log10LC50 of >−4.30 log10M

Query CC1CCC2C(C)C(CC(CO)CC3OC4OC5(C)CCC6C(C)CCC(C3C)C46OO5)OC3OC4(C)CCC1C32OO4 (stereo not drawn) yields Log10LC50 of −4.03 log10M

Query `C[C@@H]1CC[C@H]2[C@@H](C)C(=O)O[C@@H]3O[C@]4(C)CC[C@@H]1[C@]32OO4` yields Log10LC50 of >−4.00 log10M

Query C[C@@H]1CC[C@H]2[C@@H](C)C(CC(O)(COC(=O)CCC(=O)O)CC3OC4O[C@]5(C)CC[C@H]6[C@H](C)CC[C@@H]([C@H]3C)C46OO5)OC3O[C@]4(C)CCC1C32OO4 (stereo partly drawn) [Compound 9, tertiary alcohol primary succinate ester] yields Log10LC50 of >−4.30 log10M

Query CC(=O)O[C@H]1C(=O)[C@@]2(C)[C@H]([C@H](OC(=O)c3ccccc3)[C@]3(O)C[C@H](OC(=O)[C@H](O)[C@@H](NC(=O)c4ccccc4)c4ccccc4)C(C)=C1C3(C)C)[C@]1(OC(C)=O)CO[C@@H]1C[C@@H]2O [Paclitaxel, paclitaxel, reference compound] yields Log10LC50 of >−4.00 log10M
